Collected koff values appear next to each entry.
- TESTED ON: T1, human serum albumin (human, UniProt P02768 25-609)
- T1 construct: Bought protein; also called HSA
- TEST PROTOCOL: SPR, pH 7.4, immobilized HSA density ~100 RU
Note: unit s⁻¹ is implicit; provide only the numeric part.

Some binders with recorded koff:
BINDER	koff, s⁻¹
TPP-66093 (VHH, also called ALBX00002-35GS-ALB23002-A; ALBX00002-35GS-Alb223) EVQLVESGGGVVQPGGSLRLSCAASGLTFSSYAMGWFRQAPGKERERVVSISRGGGYTYYADSVKGRFTISRDNSKNTVYLQMNSLRPEDTALYYCAAARYWATGSEYEFDYWGQGTLVTVSSGGGGSGGGGSGGGGSGGGGSGGGGSGGGGSGGGGSEVQLVESGGGVVQPGGSLRLSCAASGFTFRSFGMSWVRQAPGKGPEWVSSISGSGSDTLYADSVKGRFTISRDNSKNTLYLQMNSLRPEDTALYYCTIGGSLSRSSQGTLVTVSSA	0.00011
TPP-66094 (VHH, also called T023500029-35GS-ALB23002-A; T023500029-35GS-Alb223) EVQLVESGGGVVQPGDSLRLSCAASGGTFSTYVMGWFRQAPGKEREFVSAISQNSIHTYYANSVKGRFTISRDNSKNTVYLQLNSLRPEDTALYYCAASRFTSWYTADYEYDYWGQGTLVTVSSGGGGSGGGGSGGGGSGGGGSGGGGSGGGGSGGGGSEVQLVESGGGVVQPGGSLRLSCAASGFTFRSFGMSWVRQAPGKGPEWVSSISGSGSDTLYADSVKGRFTISRDNSKNTLYLQMNSLRPEDTALYYCTIGGSLSRSSQGTLVTVSSA	0.00012
TPP-66097 (other, also called ABD-35GS-ALB23002-A; ABD-35GS-Alb223) LKEAKEKAIEELKKAGITSDYYFDLINKAKTVEGVNALKDEILKAGGGGSGGGGSGGGGSGGGGSGGGGSGGGGSGGGGSEVQLVESGGGVVQPGGSLRLSCAASGFTFRSFGMSWVRQAPGKGPEWVSSISGSGSDTLYADSVKGRFTISRDNSKNTLYLQMNSLRPEDTALYYCTIGGSLSRSSQGTLVTVSSA	7.4e-05

Query: koff; subject: TPP-66095 (other, also called DARPIN-35GS-ALB23002-A; DARPIN-35GS-Alb223) DLGKKLLEAARAGQDDEVRELLKAGADVNAKDYFSHTPLHLAARNGHLKIVEVLLKAGADVNAKDFAGKTPLHLAANEGHLEIVEVLLKAGADVNAQDIFGKTPADIAADAGHEDIAEVLQKAAGGGGSGGGGSGGGGSGGGGSGGGGSGGGGSGGGGSEVQLVESGGGVVQPGGSLRLSCAASGFTFRSFGMSWVRQAPGKGPEWVSSISGSGSDTLYADSVKGRFTISRDNSKNTLYLQMNSLRPEDTALYYCTIGGSLSRSSQGTLVTVSSA
Result: 0.00021
